Provenance of the data: paper PMC8246079

- targetOrTestSystem: TAF3 PHD domain M882A (UniProt Q5VWG9)
- assayMethodText: ITC
Non-standard residues stand in square brackets, D forms with d. No end group written: not given here. Lys(Me3) = C[N+](C)(C)CCCC[C@H](N)C(=O)O
measuredProperty: Kd (µM)
Value expressed in µM; do not type the unit.

// query Tell me the measured Kd of ART[Lys(Me3)]QTARKSTGGY [histone H3 tail peptide trimethylated at K4 (H3K4me3), ARTX… with X = Kme3] , please.
// result 120
